experiment: Phase I first-in-human study, pharmacokinetics after single ascending subcutaneous doses in healthy volunteers; type: in vivo; settings: human, plasma; single SC dose 4 mg; nominal time 2 h; mean; read-out: Plasma Concentration AXN-001
Bridge positions count the residues as written; N and C are the ends. Square brackets hold non-standard residues; d marks the D form. Peptide text beside a SMILES is read from it. * marks the point of attachment. Phe(2-CONH2) = NC(=O)c1ccccc1C[C@H](N)C(=O)O; Orn(iPr) = CC(C)NCCC[C@H](N)C(=O)O; Oxazole2carbonyl = O=C(c1ncco1)*; 3Pal = N[C@@H](Cc1cccnc1)C(=O)O
measuredParameter: level at 2 h (ng/mL)
The reply should contain only the number, in ng/mL.

Memo: CC(C)NCCC[C@@H]1NC(=O)[C@@H](NC(=O)[C@H](Cc2ccccc2C(N)=O)NC(=O)[C@H](NC(=O)c2ncco2)C(C)C)CSSC[C@@H](C(=O)N[C@@H](Cc2cccnc2)C(N)=O)NC(=O)[C@H](Cc2ccccc2)NC(=O)[C@@H]2CCCN2C(=O)CNC(=O)[C@H](C(C)C)NC(=O)[C@H](CC(=O)O)NC1=O [AXN-001] (Oxazole2carbonyl-[dV][Phe(2-CONH2)]C[Orn(iPr)]DVGPFC[3Pal]-NH2; disulfide 3-10) , reported level at 2 h: 82.5

====

assay: Phase I first-in-human study, pharmacokinetics after single ascending subcutaneous doses in healthy volunteers; type: in vivo; conditions: human, plasma; single SC dose 16 mg; mean
Bridge positions count the residues as written; N and C are the ends. Square brackets hold non-standard residues; d marks the D form. Peptide text beside a SMILES is read from it. * marks the point of attachment. Phe(2-CONH2) = NC(=O)c1ccccc1C[C@H](N)C(=O)O; Orn(iPr) = CC(C)NCCC[C@H](N)C(=O)O; Oxazole2carbonyl = O=C(c1ncco1)*; 3Pal = N[C@@H](Cc1cccnc1)C(=O)O
measuredParameter: AUC(0-inf) (ng·h/mL)
The reply should contain only the number, in ng·h/mL.

Memo: CC(C)NCCC[C@@H]1NC(=O)[C@@H](NC(=O)[C@H](Cc2ccccc2C(N)=O)NC(=O)[C@H](NC(=O)c2ncco2)C(C)C)CSSC[C@@H](C(=O)N[C@@H](Cc2cccnc2)C(N)=O)NC(=O)[C@H](Cc2ccccc2)NC(=O)[C@@H]2CCCN2C(=O)CNC(=O)[C@H](C(C)C)NC(=O)[C@H](CC(=O)O)NC1=O [AXN-001] (Oxazole2carbonyl-[dV][Phe(2-CONH2)]C[Orn(iPr)]DVGPFC[3Pal]-NH2; disulfide 3-10) , reported AUC(0-inf): 1250

====

test: Phase I first-in-human study, pharmacokinetics after single ascending subcutaneous doses in healthy volunteers; format: in vivo; details: human, plasma; single SC dose 2 mg; nominal time 2 h; mean; read-out: Plasma Concentration AXN-001
Bridge positions count the residues as written; N and C are the ends. Square brackets hold non-standard residues; d marks the D form. Peptide text beside a SMILES is read from it. * marks the point of attachment. Phe(2-CONH2) = NC(=O)c1ccccc1C[C@H](N)C(=O)O; Orn(iPr) = CC(C)NCCC[C@H](N)C(=O)O; Oxazole2carbonyl = O=C(c1ncco1)*; 3Pal = N[C@@H](Cc1cccnc1)C(=O)O
measuredParameter: level at 2 h (ng/mL)
The reply should contain only the number, in ng/mL.

Memo: CC(C)NCCC[C@@H]1NC(=O)[C@@H](NC(=O)[C@H](Cc2ccccc2C(N)=O)NC(=O)[C@H](NC(=O)c2ncco2)C(C)C)CSSC[C@@H](C(=O)N[C@@H](Cc2cccnc2)C(N)=O)NC(=O)[C@H](Cc2ccccc2)NC(=O)[C@@H]2CCCN2C(=O)CNC(=O)[C@H](C(C)C)NC(=O)[C@H](CC(=O)O)NC1=O [AXN-001] (Oxazole2carbonyl-[dV][Phe(2-CONH2)]C[Orn(iPr)]DVGPFC[3Pal]-NH2; disulfide 3-10) , reported level at 2 h: 38.1
